test system: HT29 colon cancer cells; test: MTT assay, HT29 cells; type: cell-based, human; details: read-out: IC50 (μM) HT29; HT29 cells, MTT, incubated for 72 h, mean ± s.d., n = 3
READOUT_NAME: IC50 (µM)
Give bare numbers, in µM.

Fill in IC50 for COc1cccc2c1C(=O)c1c(O)c3c(c(O)c1C2=O)C[C@@](O)(C(=O)CO)C[C@@H]3O[C@H]1C[C@H](N)[C@H](O)[C@H](C)O1 [ADM, reference compound] tested with HT29 colon cancer cells.
2.6

---

experiment: Water solubility by UV method; assay type: physicochemical; settings: thermodynamic from solid
READOUT_NAME: solubility at 2 h (µg/mL)
One number for each entry, in µg/mL.

O=c1ccc2nccc3c4ccccc4n1c23 [CO, Canthin-6-one, reference compound]: 16.1
CN1CCN(CCNC(=O)c2cc3c4ccccc4n4c(=O)ccc(n2)c34)CC1: 70.5
CN1CCC(NC(=O)c2cc3c4ccccc4n4c(=O)ccc(n2)c34)CC1: 60.4

With those in mind, consider the next compound.
Quote solubility at 2 h reported for O=C(NCCN1CCCCC1)c1cc2c3ccccc3n3c(=O)ccc(n1)c23 please.
41.3

---

For each of the compounds below, state its logP.
test: logP by UV method; assay type: physicochemical
Numbers only.

Recorded logP, per entry:
O=c1ccc2nccc3c4ccccc4n1c23 [CO, Canthin-6-one, reference compound]: 1.87
O=C(NCCN1CCCCC1)c1cc2c3ccccc3n3c(=O)ccc(n1)c23: 2.17
CN1CCC(NC(=O)c2cc3c4ccccc4n4c(=O)ccc(n2)c34)CC1: 1.38

With those in mind, consider the next compound.
Quote logP reported for CN1CCN(CCNC(=O)c2cc3c4ccccc4n4c(=O)ccc(n2)c34)CC1 please.
1.19

---

For each of the compounds below, state its IC50.
test system: HT29 colon cancer cells; assay: MTT assay, HT29 cells; assay type: cell-based, human; conditions: Homo sapiens, HT-29, 72 h, read-out: IC50 (μM) HT29
One number for each entry, in µM.

CCN(CC)CCNC(=O)c1cc2c3ccccc3n3c(=O)ccc(n1)c23: 2.2
O=C(NCCNCCO)c1cc2c3ccccc3n3c(=O)ccc(n1)c23: 2.6
CN(C)CCCNC(=O)c1cc2c3ccccc3n3c(=O)ccc(n1)c23: 4.1
CCN(CC)CCCC(C)NC(=O)c1cc2c3ccccc3n3c(=O)ccc(n1)c23 (stereo not shown): 4.3
CN(C)CCNC(=O)c1cc2c3ccccc3n3c(=O)ccc(n1)c23: 2.9

Give IC50 for each of the items listed below.
1. O=c1ccc2nccc3c4ccccc4n1c23 [CO, Canthin-6-one, reference compound]
2. O=C(NCCN1CCCCC1)c1cc2c3ccccc3n3c(=O)ccc(n1)c23
3. CN1CCN(CCNC(=O)c2cc3c4ccccc4n4c(=O)ccc(n2)c34)CC1
4. CN1CCC(NC(=O)c2cc3c4ccccc4n4c(=O)ccc(n2)c34)CC1

1. 8.6
2. 1.7
3. 1
4. 2.3
